These entries and their values trace back to PubChem BioAssay (NCI).

- assay_method_text: NCI Yeast Anticancer Drug Screen. Data for the mlh1 rad18 strain (AID 175)
- conditions: S. cerevisiae mlh1 rad18 strain growth inhibition; at 50.0 µM (retest, dose inferred, filed as 5.0); active compounds read high
The panel holds about 79,000 compounds, 15% with a hit somewhere; the sample as a whole holds those more often.
property_measured: growth inhibition (%)
The answer is to be given in %; state only the numeric part.

Consider the reported growth inhibition for these compounds:
| substance_smiles | unit_descriptor | recorded_result |
| --- | --- | --- |
| COCCOC(=O)CCn1cc(F)c(=O)[nH]c1=O | % | 51 |
| O=C1c2ccccc2C(=O)c2cc(CBr)ccc21 | % | 92 |

Now look at this entry.
[in] Look at this compound and give its reported growth inhibition. O=[N+]([O-])c1cc2no[n+]([O-])c2cc1N1CCCCC1
[out] 89
